Kindly state % from t0 for each of the entries shown.
Conditions: human, 4 h, 100 ng/mL
Expressed in %, but write only the number.

Reported % from t0 for O=c1nc(N2CCN(CC3CCCCC3O)CC2)sc2c([N+](=O)[O-])cc(C(F)(F)F)cc12 (stereo not drawn) was -3

Reported % from t0 for O=c1nc(N2CCN(CC3CCCC(O)C3)CC2)sc2c([N+](=O)[O-])cc(C(F)(F)F)cc12 (stereo not drawn) was 4

Reported % from t0 for "O=c1nc(N2CCN(CC3(O)CCCCC3)CC2)sc2c([N+](=O)[O-])cc(C(F)(F)F)cc12" was -2

Reported % from t0 for "O=C(C1CCCCC1)N1CCN(c2nc(=O)c3cc(C(F)(F)F)cc([N+](=O)[O-])c3s2)CC1" was -4

Reported % from t0 for "O=c1nc(N2CCN(CC3CCCCC3)CC2)sc2c([N+](=O)[O-])cc(C(F)(F)F)cc12" was 0

Reported % from t0 for O=C1CCCC(CN2CCN(c3nc(=O)c4cc(C(F)(F)F)cc([N+](=O)[O-])c4s3)CC2)C1 (stereo not drawn) was -10
